Listing of recorded TGI by entry.
test system: SW-620 colon; assay: NCI tumour cell line growth inhibition, 48 h

Please review the following examples before continuing.
>>> print(df.to_string())
                                   compound  experimental_value
0  CN(C)CC1CC/C(=C\c2ccc(O)cc2)C1=O (configuration not stated)             5.33 µM
1  COP(=O)(OC)C1=c2c(C)noc2=C2C=COC2C1=O (configuration not stated)            > 100 µM
2                   NC1(c2cc3ccccc3s2)CCCC1            > 100 µM

INPUT: Fill in the blank: the reported TGI of `O=C(OCc1ccccc1)N1CCNCCN(C(=O)OCc2ccccc2)CCNCC1` is ____.
OUTPUT: > 100 µM

INPUT: And what about the compound `COC(=O)[C@@H](O)[C@](O)(CCC(C)C)C(=O)O[C@@H]1C(OC)=C[C@]23CCCN2CCc2cc4c(cc2[C@H]13)OCO4` ?
OUTPUT: 9.94 µM

INPUT: And what about the compound `COc1ccc(N=NC(=Nc2ccccc2)c2ccc(N(CCC#N)CCC#N)cc2)cc1` ?
OUTPUT: > 100 µM

INPUT: And what about the compound `COc1nncc2[nH]c(-c3ccccc3)cc12` ?
OUTPUT: > 100 µM

* * *

test system: MCF7 breast; test: NCI tumour cell line growth inhibition, 48 h
Listing of recorded GI50 by entry.

Please review the following examples before continuing.
In [3]: df
Out[3]:
                                   compound          tgt  experimental_value
0          Cc1cc(I)cc(CN(CCCN(C)C)C(C)C)c1O  MCF7 breast            18800 nM
1  COc1ccc(-c2cn[nH]c2-c2cc(OC)c(OC)c(OC)c2)cc1  MCF7 breast             28.4 nM
2  O=C(CCCSc1nc(-c2ccccc2)cc(-c2ccccc2)n1)NO  MCF7 breast             2100 nM
3  COc1ccc(CCN=C2NC(=O)/C(=C/c3ccc4ncccc4c3)S2)cc1  MCF7 breast          > 25000 nM
4  C=C1C(=O)O[C@H]2[C@H]1CC/C(COC(=O)NCc1ccc(Cn3c(=O)sn(-c4ccc(OC)cc4)c3=O)cc1)=C\CC[C@@]1(C)O[C@@H]21  MCF7 breast             1770 nM

INPUT: Fill in the blank: the reported GI50 of `COc1cc(/C(C#N)=C/c2nc3c(N4CCOCC4)nc(Cl)nc3n2C)cc(OC)c1OC` is ____.
OUTPUT: < 11.5 nM

INPUT: And what about the compound `c1ccc(Sc2ncnc3ccccc23)cc1` ?
OUTPUT: 17800 nM

INPUT: And what about the compound `Nc1ccc(C2=NNC(=O)Cc3cc4c(cc32)OCCO4)cc1Cl` ?
OUTPUT: 1990 nM

INPUT: And what about the compound COc1ccc2nc3cc(Cl)ccc3c(NCCNCC(C)O)c2c1 (stereo not drawn) ?
OUTPUT: 1280 nM

INPUT: And what about the compound `CCC(=C/[C@H](C)C/C=C/C(C)=C/[C@@H](C)C(=O)[C@@H](C)[C@H](O)[C@@H](C)CC)/C=C/[C@H]1OC(=O)C=C[C@@H]1C` ?
OUTPUT: < 10 nM

INPUT: And what about the compound `COc1ccc2nc(NC(=O)CSc3nnc4n3S(=O)(=O)c3ccccc3N4c3ccccc3)sc2c1` ?
OUTPUT: > 100000 nM

INPUT: And what about the compound `CC(C)[C@@H]1C=C2CC[C@H]3[C@](C)(CN)CCC[C@]3(C)[C@H]2CC1` ?
OUTPUT: 1620 nM

INPUT: And what about the compound `Cn1ccc2c3c(Oc4ccc(NC(N)=O)cc4)ccnc3ccc21` ?
OUTPUT: > 100000 nM

Each recorded value in this set is attributed to PubChem BioAssay (NCI).
